Data provenance is the supplement of paper PMC10567573.

B1: SNAP91 (parent)
chain: FAAPSPATTASPAKVDSSGVIDLF

Variants of: B1
measurement.notes: protein stability index of a GFP-peptide fusion (GPS, HEK-293T) (PSI 1-6); higher = more stable;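 further: lentivirally expressed fusions sorted by FACS into six bins by GFP to DsRed ratio, PSI derived from sequencing read proportions per bin multiplied by bin number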
condition.notes: c terminus: a fixed tail appended
endpoint.name: protein stability index
Give a plain numeric answer without units written out.

QUERY: State, in one line, measured protein stability index of FAAPSPARTASPAKVDSSGVIDLF [T8R]
RESULT: 2.24

QUERY: Supply recorded protein stability index for FAAPSPATTASPACVDSSGVIDLF [K14C] here.
RESULT: 2.41

QUERY: Please indicate protein stability index recorded for FAAPSPATTASPAKGDSSGVIDLF [V15G]
RESULT: 2.41

QUERY: Quickly give me recorded protein stability index for FAAPSPATTASPAKVDSSGVIHLF [D22H]
RESULT: 1.94
